assay: AUC (0 to t) in Sprague-Dawley rat at 10 mg/kg, po measured after 24 hrs by LC-MS analysis; assay type: ADME, organism-based; conditions: in vivo
reported_property: AUC(0-t) at 24 h (µg·h/mL)
Just the number please, in µg·h/mL, no unit attached.

Entry CCOc1nc(Cl)cc2c1cnn2CCCC(=O)O : reported AUC(0-t) at 24 h = ?
669

====

assay: Drug concentration in Sprague-Dawley rat liver at 10 mg/kg, po administered as single dose for 2 hrs by LC-MS analysis; type: ADME, organism-based; settings: read-out: Ct
reported_property: concentration at 2 h (ng/g)
Just the number please, in ng/g, no unit attached.

Entry CCOc1nc(Cl)cc2c1cnn2CCCC(=O)O : reported concentration at 2 h = ?
8120

====

experiment: Drug concentration in Sprague-Dawley rat liver at 10 mg/kg, po administered as single dose for 1 hrs by LC-MS analysis; assay type: ADME, organism-based; settings: read-out: Ct
reported_property: concentration at 1 h (ng/g)
Just the number please, in ng/g, no unit attached.

Entry CCOc1nc(Cl)cc2c1cnn2CCCC(=O)O : reported concentration at 1 h = ?
11200

====

experiment: Chemical stability of compound in aqueous solution at pH >10 measured after 48 hrs; assay type: physicochemical; details: buffer
reported_property: Stability

Entry CCOc1nc(Cl)cc2c1cnn2CCCC(=O)O : reported Stability = ?
Stable

Moving on to the next molecule: CCOc1nc(Cl)cc2c1cnn2C1CCOCC1
Stable

Moving on to the next molecule: CCOc1nc(Cl)cc2nn(CCC(=O)O)cc12
Stable

====

molecular target: 3',5'-cyclic-AMP phosphodiesterase 4D (Homo sapiens, UniProt Q08499); assay: Inhibition of PDE4D7 (unknown origin) using FAM-cyclic-3',5'-AMP as substrate at 10 nM incubated for 1 hrs by fluorescence polarization based IMAP assay relative to control
Sequence (Q08499 whole entry): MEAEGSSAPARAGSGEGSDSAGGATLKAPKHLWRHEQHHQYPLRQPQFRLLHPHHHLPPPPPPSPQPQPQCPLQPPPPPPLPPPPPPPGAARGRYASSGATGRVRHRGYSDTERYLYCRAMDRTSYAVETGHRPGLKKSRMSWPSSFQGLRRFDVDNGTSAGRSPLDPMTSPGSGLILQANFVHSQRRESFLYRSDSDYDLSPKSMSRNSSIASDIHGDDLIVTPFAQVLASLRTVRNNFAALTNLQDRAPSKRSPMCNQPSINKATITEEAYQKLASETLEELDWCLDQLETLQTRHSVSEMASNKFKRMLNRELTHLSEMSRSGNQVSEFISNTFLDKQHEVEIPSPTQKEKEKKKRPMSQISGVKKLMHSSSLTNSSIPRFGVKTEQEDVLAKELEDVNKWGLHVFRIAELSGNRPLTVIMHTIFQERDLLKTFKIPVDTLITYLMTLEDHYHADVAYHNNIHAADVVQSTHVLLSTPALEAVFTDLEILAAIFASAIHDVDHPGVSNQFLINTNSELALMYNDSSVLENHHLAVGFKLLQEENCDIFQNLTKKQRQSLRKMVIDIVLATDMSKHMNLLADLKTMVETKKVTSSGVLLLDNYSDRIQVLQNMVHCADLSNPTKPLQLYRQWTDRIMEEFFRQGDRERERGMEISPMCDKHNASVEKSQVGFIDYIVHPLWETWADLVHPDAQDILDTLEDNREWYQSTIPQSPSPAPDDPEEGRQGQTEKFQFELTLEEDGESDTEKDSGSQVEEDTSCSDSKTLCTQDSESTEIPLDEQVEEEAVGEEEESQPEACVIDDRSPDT
Listing of recorded inhibition by entry.
Just the number please, in %, no unit attached.

// solved cases for inhibition follow
Entry CCOc1nc(Cl)cc2c1c(CC)nn2CCCC(=O)O : reported inhibition = ?
15

Moving on to the next compound: CCOc1nc(Cl)cc2c1cnn2CCCC(=O)O
21

Moving on to the next compound: CCOc1nc(Cl)cc2c1c(C(F)(F)F)nn2CCCC(=O)O
23

Next:
Entry CCOc1nc(Cl)cc2nn(CCCC(=O)O)cc12 : reported inhibition = ?
6

Moving on to the next compound: CCOc1nc(Cl)cc2nn(CCCC(=O)NO)cc12
18

Moving on to the next compound: CCOc1nc(Cl)cc2c1c(-c1ccc(OC)cc1)nn2CCCC(=O)O
7

Moving on to the next compound: CCOc1nc(Cl)cc2nn(CC(=O)O)cc12
5

====

assay: Clearance in Sprague-Dawley rat at 2 mg/kg, iv measured after 24 hrs by LC-MS analysis; type: ADME, organism-based; conditions: in vivo
reported_property: clearance (mL/min/kg)
Just the number please, in mL/min/kg, no unit attached.

Entry CCOc1nc(Cl)cc2c1cnn2CCCC(=O)O : reported clearance = ?
0.211

====

assay: AUC (0 to infinity) in Sprague-Dawley rat at 2 mg/kg, iv measured after 24 hrs by LC-MS analysis; format: ADME, organism-based; details: in vivo
reported_property: AUC(0-inf) (µg·h/mL)
Just the number please, in µg·h/mL, no unit attached.

Entry CCOc1nc(Cl)cc2c1cnn2CCCC(=O)O : reported AUC(0-inf) = ?
143

====

target: 3',5'-cyclic-AMP phosphodiesterase 4D (Homo sapiens); test: Inhibition of PDE4D7 (unknown origin) using FAM-cyclic-3',5'-AMP as substrate at 100 nM incubated for 1 hrs by fluorescence polarization based IMAP assay relative to control
Listing of recorded inhibition by entry.
Just the number please, in %, no unit attached.

// solved cases for inhibition follow
# value lookup — system 3',5'-cyclic-AMP phosphodiesterase 4D (Homo sapiens), readout inhibition, item Clc1cc2c(cnn2C2CCOCC2)c(OC2CCCC2)n1
5

Moving on to the next molecule: CCNc1nc(Cl)cc2c1cnn2C1CCCC1
5

Moving on to the next molecule: CCOc1nc(Cl)cc2c1c(C1CCCCC1)nn2CCCC(=O)O
11

Moving on to the next molecule: CCOc1nc(Cl)cc2c1cnn2-c1ccc(OC)cc1
5

Moving on to the next molecule: CCOc1nc(Cl)cc2c1c(NCC(C)C)nn2CCCC(=O)O
27

Switching to the query record.
# value lookup — system 3',5'-cyclic-AMP phosphodiesterase 4D (Homo sapiens), readout inhibition, item CCOc1nc(Cl)cc2nn(CCC(=O)NO)cc12
66

====

experiment: Chemical stability of compound in aqueous solution at pH <6 measured after 48 hrs; format: physicochemical; conditions: buffer
reported_property: Stability

Entry CCOc1nc(Cl)cc2nn(CCC(=O)O)cc12 : reported Stability = ?
Stable

Moving on to the next compound: CCOc1nc(Cl)cc2c1cnn2C1CCOCC1
Stable

Moving on to the next compound: CCOc1nc(Cl)cc2c1cnn2CCCC(=O)O
Stable

====

experiment: Volume of distribution at steady state in Sprague-Dawley rat at 2 mg/kg, iv measured after 24 hrs by LC-MS analysis; type: ADME, organism-based; conditions: in vivo, read-out: Vdss
reported_property: Vd (L/kg)
Just the number please, in L/kg, no unit attached.

Entry CCOc1nc(Cl)cc2c1cnn2CCCC(=O)O : reported Vd = ?
0.0719

====

molecular target: 3',5'-cyclic-AMP phosphodiesterase 4D (Homo sapiens, UniProt Q08499); test: Inhibition of PDE4D7 (unknown origin) using FAM-cyclic-3',5'-AMP as substrate at 10 nM incubated for 1 hrs by fluorescence polarization based IMAP assay relative to control
reported_property: inhibition (%)
Just the number please, in %, no unit attached.

// solved cases for inhibition follow
Entry CCOc1nc(Cl)cc2c1cnn2CCC(=O)NO : reported inhibition = ?
9

Moving on to the next compound: CCOc1nc(Cl)cc2nn(CCC(=O)NO)cc12
25

Moving on to the next compound: CCOc1nc(Cl)cc2c1cnn2CCCO
5

Moving on to the next compound: CCOc1nc(Cl)cc2c1cnn2CCC(=O)O
8

Moving on to the next compound: CCOc1nc(Cl)cc2c1cnn2CCCC(=O)NO
5

Next:
Entry CCOc1nc(Cl)cc2c1c(-c1cccnc1)nn2CCCC(=O)O : reported inhibition = ?
4

Moving on to the next compound: CCOc1nc(Cl)cc2c1cnn2CC(=O)NC
4

Moving on to the next compound: CCOc1nc(Cl)cc2nn(CCO)cc12
6

Moving on to the next compound: CCOc1nc(Cl)cc2c1c(C1CCCCC1)nn2CCCC(=O)O
6

Moving on to the next compound: CCOc1nc(Cl)cc2c1c(C1CC1)nn2CCCC(=O)O
8

Moving on to the next compound: CCOc1nc(Cl)cc2c1c(Nc1ccccc1)nn2CCCC(=O)O
7

====

assay: Half-life in Sprague-Dawley rat at 2 mg/kg, iv measured after 24 hrs by LC-MS analysis; format: ADME, organism-based; details: in vivo
reported_property: half-life
Quick note: number first, unit second.

Entry CCOc1nc(Cl)cc2c1cnn2CCCC(=O)O : reported half-life = ?
3.65 h

====

experiment: AUC (0 to t) in Sprague-Dawley rat at 2 mg/kg, iv measured after 24 hrs by LC-MS analysis; format: ADME, organism-based; details: in vivo
reported_property: AUC(0-t) at 24 h (µg·h/mL)
Just the number please, in µg·h/mL, no unit attached.

Entry CCOc1nc(Cl)cc2c1cnn2CCCC(=O)O : reported AUC(0-t) at 24 h = ?
142

====

assay: Oral bioavailability in Sprague-Dawley rat at 10 mg/kg measured after 24 hrs by LC-MS analysis; type: ADME, organism-based; conditions: in vivo
reported_property: bioavailability (%)
Just the number please, in %, no unit attached.

Entry CCOc1nc(Cl)cc2c1cnn2CCCC(=O)O : reported bioavailability = ?
94.1

====

assay: Drug concentration in Sprague-Dawley rat plasma at 10 mg/kg, po administered as single dose for 2 hrs by LC-MS analysis; type: ADME, organism-based
reported_property: concentration at 2 h (ng/mL)
Just the number please, in ng/mL, no unit attached.

Entry CCOc1nc(Cl)cc2c1cnn2CCCC(=O)O : reported concentration at 2 h = ?
27000

====

biological target: 3',5'-cyclic-AMP phosphodiesterase 4D (Homo sapiens, UniProt Q08499)
reported_property: pIC50
Remember, pIC50 is on a log scale: it is -log10 of the molar concentration.

// solved cases for pIC50 follow
Entry CCOc1nc(Cl)cc2c1cnn2CCCC(=O)O : reported pIC50 = ?
7.43

Moving on to the next molecule: CCOc1nc(Cl)cc2nn(CCCC(=O)NO)cc12
7.29

Moving on to the next molecule: CCOc1nc(Cl)cc2nn(CC(=O)NO)cc12
7.69

Moving on to the next molecule: CCOc1nc(Cl)cc2nn(CCCO)cc12
7.15

Moving on to the next molecule: CCOc1nc(Cl)cc2c1cnn2C1CCOCC1
7.03

Switching to the query record.
Entry CCOc1nc(C#N)cc2c1cnn2C1CCOCC1 : reported pIC50 = ?
6.64
